# Test system: PC-3
# assay.remarks: Cytotoxicity against human PC3 cells after 48 hrs by MTT assay
# Assay type: functional, cell-based
# condition.notes: PC-3, 48 h
Provide the recorded IC50 for the entries that follow.
Give bare numbers, in µM.

| molecule | test.system | recorded.endpoint | endpoint.unit | reported.result |
| --- | --- | --- | --- | --- |
| COc1cc2c3c(c4cc(OC)c(OC)cc4c2cc1OC)C(c1cc(OC)c(OC)c(OC)c1)C1=C(CC(C)(C)CC1=O)N3 (stereo not drawn) | PC-3 | IC50 | µM | 8.9 |
| COc1cc2c3c(c4cc(OC)c(OC)cc4c2cc1OC)C(c1cccc(C(F)(F)F)c1)C1=C(CCCC1=O)N3 (stereo not drawn) | PC-3 | IC50 | µM | 11.8 |

Find the measured IC50 of COc1cc2c3c(c4cc(OC)c(OC)cc4c2cc1OC)C(c1ccc(C)cc1)C1=C(CCCC1=O)N3 (stereo not drawn) and report it.
7.17

----------
# Test system: HEK-293T
# assay.remarks: Cytotoxicity against human HEK293T cells after 48 hrs by MTT assay
# Assay type: cell-based
For each entry below, report its IC50 value.

| compound | IC50 |
| --- | --- |
| COc1ccc(C2C3=C(CCCC3=O)Nc3c2c2cc(OC)c(OC)cc2c2cc(OC)c(OC)cc32)cc1OC (stereo not drawn) | > 50 µM |
| COc1cc2c3c(c4cc(OC)c(OC)cc4c2cc1OC)C(c1ccc(Cl)cc1)C1=C(CC(C)(C)CC1=O)N3 (stereo not drawn) | > 50 µM |

Proceeding to the next compound to report its IC50.
State its IC50 for this compound: COc1cc2c3c(c4cc(OC)c(OC)cc4c2cc1OC)C(c1cc(OC)c(O)c(OC)c1)C1=C(CC(C)(C)CC1=O)N3 (stereo not drawn)
> 50 µM
